Source: the supplement of paper PMC6755084

B1: F1*; the commonest letter at each place (parent)
chain: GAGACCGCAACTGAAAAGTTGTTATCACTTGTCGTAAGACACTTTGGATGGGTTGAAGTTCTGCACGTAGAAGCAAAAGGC

- Variants of: B1
- experiment-notes: fraction ligated after 30 min (ligated reads / total reads); higher = more ligase activity
- stated-conditions: with F1*sub RNA substrate (template-directed ligation), 42 °C
reported-property: fraction ligated
# answer = number (no unit)

# variant-designation, fraction ligated
measured = [
    ("C26T A39G", 0.819),
    ("C40T T49G", 0.812),
    ("G34C A39G", 0.807),
]

So for C40G T44G , the logged fraction ligated turned out to be 0.807

So for C40A A56T , the logged fraction ligated turned out to be 0.812
